biological target: Inadl_3, Q8NI35; assay: holdup assay; design: key: below the threshold = too weak to quantify, mostly under pKd 3.1 to 4; settings: plain residues with an end cap or a label only (N-terminal biotin on a linker: ado-ado)
Sequence (Q8NI35 359-469): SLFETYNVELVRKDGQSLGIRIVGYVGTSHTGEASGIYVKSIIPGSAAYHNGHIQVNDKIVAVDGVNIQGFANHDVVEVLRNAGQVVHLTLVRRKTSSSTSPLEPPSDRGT

{"binder": "RSSGGDDFWF [KCNV1, Q6PIU1]", "pKd": 3.59}
{"binder": "SVTSERETNI [SLC16A7, O60669]", "pKd": "below the threshold"}
{"binder": "DGVNEKVSCV [HTR2A, P28223]", "pKd": "below the threshold"}
{"binder": "KSRVAFFEEL [NF2, P35240;P35240-1]", "pKd": 4.28}

Cited source for all entries: paper PMC9482650
